From: PubChem BioAssay (NCI)

System: RXF 393 renal
Experiment: NCI tumour cell line growth inhibition, 48 h
measuredQuantity: TGI (µM)

- COC(=O)C1Cc2c([nH]c3ccccc23)C(c2cccc(O)c2)N1 (configuration not stated): 55.4
- CCOC(=O)C1C=C2O[C@@H]3OC4(CCCCC4)O[C@@H]3C2[C@H]2C(=O)C=CC(=O)[C@@]12C(=O)OC (some centres not stated): 3.59
- O=[N+]([O-])c1ccc(Sc2ncccn2)c([N+](=O)[O-])c1: 3.23

* * *

Listed next: entries and their corresponding TGI.
System: EKVX NSCLC
Experiment: NCI tumour cell line growth inhibition, 48 h
measuredQuantity: TGI

* Nc1cccc2c1C(=O)N(C1CCC(=O)NC1=O)C2=O (stereo not drawn) | > 100 µM
* COc1ccccc1/C=C1\Sc2scc(-c3cccc([N+](=O)[O-])c3)[n+]2C1=O | 28 µM
* O=C1C2=C(c3ccccc31)C(c1cccc(Cl)c1)NC(=S)N2 (stereo not drawn) | > 100 µM

* * *

Test system: SF-539 CNS
Experiment: NCI tumour cell line growth inhibition, 48 h
As shown below, each of these compounds has a reported TGI value.
measuredQuantity: TGI (µM)

• O=C(c1ccccc1)c1nn(-c2ccc(Cl)cc2)c2nc3nc(-c4ccccc4)cc(=O)n3nc12 = 45.4
• CC(O)c1c2c(cc3c1CC1(C3)Cc3cc4c(c(C(C)O)c3C1)CCC4)CCC2 (stereo not given) = 46.4
• CC(=O)[CH-]C(=O)c1ccccc1.CC(=O)[CH-]C(=O)c1ccccc1.CCN(CC)CC[O-].CCN(CC)CC[O-].Cl.[Ti+4] = 76.5

* * *

Test system: ACHN renal
Assay: NCI tumour cell line growth inhibition, 48 h
measuredQuantity: TGI

* CC1=C(C(=O)Nc2ccccc2)C(c2ccc3c(c2)OCO3)C(C(=O)Nc2ccccc2)=C(C)N1 | > 100 µM
* CC(=O)O[C@H]1C(=O)[C@@]2(C)C([C@H](OC(=O)c3ccccc3)[C@]3(O)C[C@H](OC(=O)[C@H](O)[C@H](NC(=O)c4ccccc4)c4ccc(Cl)cc4)C(C)=C1C3(C)C)C1(OC(C)=O)CO[C@@H]1C[C@@H]2O (stereo partly drawn) | > 100 µM
* CCCCCCC(=O)C/C(CCC(=O)N(Cc1ccccc1)Cc1ccccc1)=N\Nc1ccc([N+](=O)[O-])cc1[N+](=O)[O-] | > 100 µM

* * *

Tested on: K-562 leukemia
Test: NCI tumour cell line growth inhibition, 48 h
Each entry below carries its reported TGI.
measuredQuantity: TGI

• CCOC(=O)Cc1c(Cc2[nH]c(C(=O)OCc3ccccc3)c(CC(=O)OCC)c2CC(=O)OCC)[nH]c(C(=O)OCc2ccccc2)c1CC(=O)OCC = > 100 µM
• CSC(SC)=C1C(=O)NN=C1C = > 100 µM
• O=C1/C(=C\c2ccc([N+](=O)[O-])cc2)Sc2scc(-c3ccc(O)c(O)c3)[n+]21 = > 100 µM

* * *

Listing of recorded TGI by entry.
Test system: M14 melanoma
Assay: NCI tumour cell line growth inhibition, 48 h
measuredQuantity: TGI

* CSc1c(C(=O)Nc2ccc(C)cc2)c(N)nn1-c1ccccc1 | > 100 µM
* Cc1c2c(c(C)n1-c1ccccc1)C(=O)N(CCSC(=N)N)C2=O | > 100 µM
* CC12OC(C(=O)C13CC3)C1C(=O)c3ccccc3C(=O)C12 (stereo unspecified) | > 100 µM
* Cc1ccc(S(=O)(=O)NC(=O)NC(CO)C(=O)O)cc1 (stereo unspecified) | > 100 µM
* Cc1nc2c(o1)C(=O)c1ccccc1C2=NC1CCCCC1N (stereo unspecified) | 1.53 µM
* O=C(CCCN1CCC2(CC1)C(=O)NC(=O)N2c1ccccc1)c1ccc(F)cc1 | > 100 µM

* * *

System: NCI-H460 lung
measuredQuantity: GI50

• COC(=O)c1cnc(=O)n(C2CC(O)C(CO)O2)c1 (centres undefined) = > 100 µM
• CCOC(=O)CCC(NC(=O)c1ccc(N=Cc2nc3cc(C(F)(F)F)ccc3nc2-c2ccccc2)cc1)C(=O)OCC (centres undefined) = > 100 µM
• COC(=O)[C@]12CC[C@@H](C)[C@H](C)[C@@H]1C1=CC[C@@H]3[C@@]4(C)CC(=O)[C@H](O)[C@@]5(C)COC(=C45)C[C@@]3(C)[C@]1(C)CC2 = 18.8 µM
• CCCCCCCCCCCCCCCCCCNC(=O)[C@H]1CSC(c2ccc(OC)c(F)c2)N1 (some centres undefined) = 0.606 µM

* * *

Test system: MDA-MB-231 breast
Assay: NCI tumour cell line growth inhibition, 48 h
measuredQuantity: TGI (µM)

* COc1cc2c3c(n(C)c(=O)c2cc1OC)-c1cc2c(cc1/C3=C\CCCCN)OCO2 | 11.4
* CC(=O)c1ccc(Nc2cc(-n3ccnc3)nc3ccccc23)cc1 | 18.1
* COc1cc(N(CCC#N)CCC#N)ccc1/C(N=Nc1ccc(C)cc1)=N/NC(=O)c1cc(Br)ccc1O | 55.2

* * *

System: K-562 leukemia
Test: NCI tumour cell line growth inhibition, 48 h; in the data active means GI50 below about 0.43 µM; inactive means the rest
Labels: Y for active, N for inactive

* O=[N+]([O-])c1ccc(Sc2ncccn2)c([N+](=O)[O-])c1 | N
* CC(=O)[CH-]C(=O)c1ccccc1.CC(=O)[CH-]C(=O)c1ccccc1.CCN(CC)CC[O-].CCN(CC)CC[O-].Cl.[Ti+4] | N
* CC(=O)c1ccc(Nc2cc(-n3ccnc3)nc3ccccc23)cc1 | N
* O=C1c2cc3c(cc2-c2c1c1cc(Cl)c(Cl)cc1c(=O)n2CCCn1ccnc1)OCO3 | Y
* COc1cc2c3c(n(C)c(=O)c2cc1OC)-c1cc2c(cc1/C3=C\CCCCN)OCO2 | N
* O/N=C1\CCc2cc(-c3nc(C4CCNCC4)[nH]c3-c3ccncc3)ccc21 | N
* Cc1cc(NC(=O)C2c3ccccc3C(=O)N(CC(C)C)C2c2cccs2)no1 (stereo unspecified) | N
* COc1ccc(/C(=C/c2cc(OC)c(OC)c(OC)c2)[N+](=O)[O-])cc1 | N
* O=[N+]([O-])c1ccc(N/N=C\c2cc(Cl)ccc2O)nc1 | N
* Cc1ccc(S(=O)(=O)NC(CCC(=O)Nc2ccc(Cl)cc2)C(=O)Nc2ccc(Cl)cc2)cc1 (stereo unspecified) | Y
* N#C/C(=C\c1c(-c2ccccc2)[nH]c2ccccc12)C(=O)c1ccc(Cl)cc1 | Y

* * *

Examples of compounds with documented GI50 follow.
Test system: MDA-MB-231 breast
Assay: NCI tumour cell line growth inhibition, 48 h
measuredQuantity: GI50

- OB([O][Hg][c]1ccccc1)[O][Hg][c]1ccccc1: 628 nM
- Cc1cc2c(C)c3cc(C)c(N)cc3nc2cc1N: 1090 nM
- N#C/C(=C\c1c(-c2ccccc2)[nH]c2ccccc12)C(=O)c1ccc(Cl)cc1: 4090 nM
- COc1cc[nH]c1/C=C1\C(=O)Nc2ccc(F)c(C#C[C@@H](O)[C@@H](N)[C@@H](C)O)c21: 485 nM
- O=[N+]([O-])c1ccc(N/N=C\c2cc(Cl)ccc2O)nc1: 3880 nM
- COc1ccc(-c2cc(-c3ccc(Nc4nc(Nc5ccc(Cl)cc5)nc(Nc5ccc(Cl)cc5)n4)cc3)nc(N)c2C#N)cc1: 1540 nM
- CC12OC(C(=O)C13CC3)C1C(=O)c3ccccc3C(=O)C12 (centres undefined): 46800 nM
- O=[N+]([O-])c1ccc(Sc2ncccn2)c([N+](=O)[O-])c1: 5310 nM
- COc1cc2c3c(n(C)c(=O)c2cc1OC)-c1cc2c(cc1/C3=C\CCCCN)OCO2: 2940 nM

* * *

Each entry below lists one item and its recorded TGI value.
System: SF-295 CNS
Experiment: NCI tumour cell line growth inhibition, 48 h
measuredQuantity: TGI

* CCOC(=O)c1c(O)[nH]c(=O)c(CC)c1C | > 100 µM
* O=C1c2cc3c(cc2-c2c1c1cc(Cl)c(Cl)cc1c(=O)n2CCCn1ccnc1)OCO3 | 0.0131 µM
* COC(=O)Nc1nc2ccc(C(=O)c3ccc[nH]3)cc2[nH]1 | > 100 µM
* NC(N)=NC(CC(=O)O)c1ccccc1 (configuration not stated) | > 100 µM
* Cc1ccc(/C=C2\CN(C)CC3C(c4ccc(C)cc4)=C(C#N)C(=O)NC23)cc1 (configuration not stated) | > 50 µM
* COc1ccc(-c2oc3cc(O)c(OC)c(O)c3c(=O)c2OC2OC(CO)C(O)C(O)C2O)cc1 (configuration not stated) | > 100 µM
* CNC(=O)OCc1nc(SC(C)C)n(C)c1COC(=O)NC | > 100 µM
* Cc1ccc(/C=C2\N=C(N3CCCCC3)NC2=O)cc1 | > 100 µM
* COc1ccccc1C(=O)/C=C/c1cc2cccc(OC)c2[nH]c1=O | 3.85 µM
* CC(=O)Nc1ccc(Nc2cc(=O)n(C)c(=O)[nH]2)cc1 | > 100 µM
* OB([O][Hg][c]1ccccc1)[O][Hg][c]1ccccc1 | 3.17 µM
* CNNC1=NS(=O)(=O)c2cc(C)c(Cl)cc2S1 | > 10 µM
* CCCCN(CCCC)C(=O)C(=O)CC(=O)c1ccc(Br)cc1 | > 100 µM
* COc1cc[nH]c1/C=C1\C(=O)Nc2ccc(F)c(C#C[C@@H](O)[C@@H](N)[C@@H](C)O)c21 | 3.44 µM
* CC(C)(C)c1cc(C(=O)/C=C/c2ccc(O)c(O)c2O)cc(C(C)(C)C)c1O | 27.8 µM
* CC1=C2C(=O)O[C@@H](c3ccoc3)[C@]2(C)CCC1=O | > 100 µM
* COC(=O)[C@@H]1C=C[C@@H](C#N)n2c(=O)n(-c3ccccc3)c(=O)n21 | > 100 µM
* Cc1cc2c(C)c3cc(C)c(N)cc3nc2cc1N | 4.87 µM
* COc1ncnc2c1cnn2Cc1cn(COCC(O)CO)nn1 (configuration not stated) | > 100 µM
* ClC(=Nc1cccc2ccccc12)N(c1ccccc1)c1ccccc1 | > 100 µM
* CCN(CC)CCNC(=O)c1ccc([N+](=O)[O-])cc1OC | > 100 µM
* Cc1cccc(/C=N/NC(=S)NCc2ccccn2)n1 | > 100 µM
* NC(N)=NS(=O)(=O)c1ccc(NC(=O)c2cccc3c(Nc4ccc(S(=O)(=O)N=C(N)N)cc4)c4ccc(Cl)cc4nc23)cc1 | > 100 µM
* O=C(O)CN(c1ccc(Cl)cc1)S(=O)(=O)c1ccccc1 | > 100 µM
* CCOc1ccc(N2C(=O)C3c4[nH]c5ccccc5c4C4CCC(C(C)(C)C)CC4C3C2=O)cc1 (configuration not stated) | > 100 µM
* NNC(=O)/C(=C/c1cccc([N+](=O)[O-])c1)NC(=O)c1ccccc1 | > 100 µM
* COc1c(OC(C)=O)ccc(/C=C2\N=C(C)OC2=O)c1[N+](=O)[O-] | > 100 µM
* N#C/C(=C\c1c(-c2ccccc2)[nH]c2ccccc12)C(=O)c1ccc(Cl)cc1 | 16.4 µM
* CCCCCCC(=O)C/C(CCC(=O)N(Cc1ccccc1)Cc1ccccc1)=N\Nc1ccc([N+](=O)[O-])cc1[N+](=O)[O-] | > 100 µM
* O=C1C2=C(c3ccccc31)C(c1cccc(Cl)c1)NC(=S)N2 (configuration not stated) | > 100 µM
* CC1(C)CC(=O)C2=C(C1)NC(SSC1=C(C#N)C(c3ccccc3)C3=C(CC(C)(C)CC3=O)N1)=C(C#N)C2c1ccccc1 (configuration not stated) | > 150 µg/mL
* CC1=COC(=O)c2ccccc2N1 | > 100 µM
* N=C(/C=C/c1ccc(-c2cn3cc(/C=C/C(=N)N4CCCC4)ccc3n2)cc1)N1CCCC1 | > 100 µM
* CCOC(=O)/N=c1\ss/c(=N\C(=S)N(C)C)n1-c1ccccc1 | > 100 µM
* CC(=O)Oc1cc(OC(C)=O)c2c(=O)c3ccccc3n(C)c2c1 | 44.2 µM
* COc1ccc(/C=C2\CN(C(=O)CCN3CCC(=NO)CC3)C/C(=C\c3ccc(OC)cc3)C2=O)cc1 | 7.69 µM
* O/N=C1\CCc2cc(-c3nc(C4CCNCC4)[nH]c3-c3ccncc3)ccc21 | > 25 µM
* COc1cc(N(CCC#N)CCC#N)ccc1/C(N=Nc1ccc(C)cc1)=N/NC(=O)c1cc(Br)ccc1O | > 100 µM
* O=C1C2=C(c3ccccc31)C(c1ccc(Cl)cc1)N1C(=O)CCSC1=N2 (configuration not stated) | > 100 µM
* Cc1nc(-c2ccccc2)c(C)n2c1nc1ccccc12 | > 100 µM
* CCOc1cc(/C=N\N(C)C)cc(/C=N\N(C)C)c1O | > 100 µM
* O=S(=O)(c1cc(Cl)ccc1Cl)N1CCN(c2ccc(Cl)c(Cl)c2)CC1 | 50.5 µM
